The reported measurements were obtained from the supplement of paper PMC9170038.

- Test system: K4 kissing-loop RNA reporter;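 further: bound reporter read as fluorescence of individual clusters on recovered sequencing chips by microscopy, with normalized cluster intensities fitted with a binding model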
- Assay Info: apparent KD of K4 kissing-loop reporter; higher = weaker reporter binding
- Applied Conditions: Eterna round: R107; input ligand: tryptophan 2.4 mM
Each entry below carries its reported apparent KD of K4 kissing-loop reporter.

| Residue Codes | Assay Target | Units Symbol | apparent KD of K4 kissing-loop reporter |
| --- | --- | --- | --- |
| UAGGAGUGAUGUUCCAUAUCUUGAGCCGAAGGAGCGCCUUUCUAGGCAGGUAGGUCGCGGCAGAAGGUACCAGUGAUGUUGGAAA [Same State Arginine A GF7] | K4 kissing-loop RNA reporter | nM | 145 |
| UCCACGCUUAGAGGAUAUCGGAUUAGAGUGAUGUUCUAAAGAAGCCCAGUGAUGUUGGAUGGUAUACGAGAAGGCUGUGGCGUGU [Same State FMN B GF 4] | K4 kissing-loop RNA reporter | nM | 369 |
| UCCUUUGUUGCCAGUGAUGUUGGACAGGAAGGAGCGGGCAUAAGCCCAGGUAGGUCGCCUGUCAACUUUCUUAUAGCCCUAAGGU [KL-XArg-A16] | K4 kissing-loop RNA reporter | nM | 337 |
| ACGUCCGGGUUAAUCGUGGGCGUGGUGGAUACCAGUUCUUUAAUGAACCCUUGGCAGCCACAUGAGUGAUGUUCAUGUGCGAUGA [KL-XTheo-A10 #analogue] | K4 kissing-loop RNA reporter | nM | 95.4 |
| AAACGCUUGAAUAACAAGCGAAAUAAAAUUCGAGGACCGGUACGGCCGCCACUCGGGCUAACUGCGAGUGAUGUUCGAAAAUAAA [Mat - Mod of OpenEnded 3 - D17] | K4 kissing-loop RNA reporter | nM | 73.2 |
| AACGUGGCCAAAGGAUAUCUCCCUACGUCGUUGCAUCUACCUCUGUUUGCUCUGAGUGAUGUUUGGAGAGAAGGUUGAGGCGAUU [theeternabot_exclusion_KL_FMN_B_29] | K4 kissing-loop RNA reporter | nM | 387 |
